Recorded values, source the supplement of paper PMC10307832.

Tested on: EMC-BAC-2
Test: relative viability (nuclei count vs DMSO), 5 days (fraction); higher = more cells survive
Conditions: first compound 0.2 µM
With a cut-off of 0.5, any relative viability strictly below it is called fulfilled; any relative viability meeting it or above is called not fulfilled.

Compound	Label
Cc1csc(=NC2CCCCC2)n1/N=C/c1ccc(O)c(O)c1O [MIM1] + CS(=O)(=O)CCNCc1ccc(-c2ccc3ncnc(Nc4ccc(OCc5cccc(F)c5)c(Cl)c4)c3c2)o1 [Lapatinib] (partner 2 µM)	not fulfilled
CN1CCN(CCOc2cc(OC3CCOCC3)c3c(Nc4c(Cl)ccc5c4OCO5)ncnc3c2)CC1 [Saracatinib] + COc1cc2c(Oc3ccc(NC(=O)C4(C(=O)Nc5ccc(F)cc5)CC4)cc3F)ccnc2cc1OCCCN1CCOCC1 [Foretinib] (partner 0.25 µM)	not fulfilled
Cc1csc(=NC2CCCCC2)n1/N=C/c1ccc(O)c(O)c1O [MIM1] + Cc1nc(Nc2ncc(C(=O)Nc3c(C)cccc3Cl)s2)cc(N2CCN(CCO)CC2)n1 [Dasatinib] (partner 0.075 µM)	fulfilled
Cc1csc(=NC2CCCCC2)n1/N=C/c1ccc(O)c(O)c1O [MIM1] + N=C(N)NC(=N)NCCc1ccccc1 [Phenformin] (partner 250 µM)	not fulfilled
CN1CCN(CCOc2cc(OC3CCOCC3)c3c(Nc4c(Cl)ccc5c4OCO5)ncnc3c2)CC1 [Saracatinib] + O=C(CCCCCCC(=O)Nc1ccccc1)NO [Vorinostat] (partner 1 µM)	fulfilled

----------
Listed here are molecules together with their documented relative viability.
Test system: PC-14
Experiment: relative viability (nuclei count vs DMSO), 5 days (fraction); higher = more cells survive
Conditions: first compound 0.006325 µM
Property Label: relative viability

Molecule	Experimental Result
CCNC(=O)c1noc(-c2cc(C(C)C)c(O)cc2O)c1-c1ccc(CN2CCOCC2)cc1 [Luminespib] + CC1(C)CCC(c2ccc(Cl)cc2)=C(CN2CCN(c3ccc(C(=O)NS(=O)(=O)c4ccc(N[C@H](CCN5CCOCC5)CSc5ccccc5)c(S(=O)(=O)C(F)(F)F)c4)cc3)CC2)C1 [Navitoclax] (partner 0.5 µM)	0.945
CCNC(=O)c1noc(-c2cc(C(C)C)c(O)cc2O)c1-c1ccc(CN2CCOCC2)cc1 [Luminespib] + Cc1nc(NC(=O)N2CCC[C@H]2C(N)=O)sc1-c1ccnc(C(C)(C)C(F)(F)F)c1 [Alpelisib] (partner 2 µM)	0.882
CCNC(=O)c1noc(-c2cc(C(C)C)c(O)cc2O)c1-c1ccc(CN2CCOCC2)cc1 [Luminespib] + Cc1cc(Nc2cc(N3CCN(C)CC3)nc(Sc3ccc(NC(=O)C4CC4)cc3)n2)n[nH]1 [Tozasertib] (partner 0.1 µM)	0.547
CCNC(=O)c1noc(-c2cc(C(C)C)c(O)cc2O)c1-c1ccc(CN2CCOCC2)cc1 [Luminespib] + C[C@@H](Oc1cc(-c2cnn(C3CCNCC3)c2)cnc1N)c1c(Cl)ccc(F)c1Cl [Crizotinib] (partner 1 µM)	0.845

----------
Listed here are compounds together with their documented relative viability.
System: NCI-H1792
Experiment: relative viability (nuclei count vs DMSO), 5 days (fraction); higher = more cells survive
Conditions: first compound 0.002 µM
Property Label: relative viability

Compound	Property Label	Experimental Result
CCNC(=O)c1noc(-c2cc(C(C)C)c(O)cc2O)c1-c1ccc(CN2CCOCC2)cc1 [Luminespib] + Nc1nc2[nH]cc(CCc3ccc(C(=O)N[C@@H](CCC(=O)O)C(=O)O)cc3)c2c(=O)[nH]1 [Pemetrexed] (partner 0.2 µM)	relative viability	0.816
CCNC(=O)c1noc(-c2cc(C(C)C)c(O)cc2O)c1-c1ccc(CN2CCOCC2)cc1 [Luminespib] + Nc1ncn([C@H]2C[C@H](O)[C@@H](CO)O2)c(=O)n1 [Decitabine] (partner 2 µM)	relative viability	0.521
CCNC(=O)c1noc(-c2cc(C(C)C)c(O)cc2O)c1-c1ccc(CN2CCOCC2)cc1 [Luminespib] + C[C@]1(O)C[C@@H](c2nc(-c3ccc4ccc(-c5ccccc5)nc4c3)c3c(N)nccn32)C1 [Linsitinib] (partner 1 µM)	relative viability	0.444
CCNC(=O)c1noc(-c2cc(C(C)C)c(O)cc2O)c1-c1ccc(CN2CCOCC2)cc1 [Luminespib] + CC(C)C[C@H](NC(=O)[C@H](Cc1ccccc1)NC(=O)c1cnccn1)B(O)O [Bortezomib] (partner 0.002 µM)	relative viability	0.93
